Biological target: UniProt P08908
Sequence (P08908 whole entry): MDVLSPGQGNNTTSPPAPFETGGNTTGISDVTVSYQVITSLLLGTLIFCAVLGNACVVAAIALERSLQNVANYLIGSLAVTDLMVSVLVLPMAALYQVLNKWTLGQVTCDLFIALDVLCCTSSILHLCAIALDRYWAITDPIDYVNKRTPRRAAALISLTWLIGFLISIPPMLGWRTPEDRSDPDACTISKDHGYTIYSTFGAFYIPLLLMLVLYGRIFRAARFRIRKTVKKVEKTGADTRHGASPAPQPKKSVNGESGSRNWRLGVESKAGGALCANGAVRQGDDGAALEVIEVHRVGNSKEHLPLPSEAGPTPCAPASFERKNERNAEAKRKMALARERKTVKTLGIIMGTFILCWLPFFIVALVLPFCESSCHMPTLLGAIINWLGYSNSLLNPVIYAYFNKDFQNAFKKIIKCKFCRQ
Format: functional, cell-based
readout-label: AC50

[[record]]
molecule = "Cc1cc(O)c(C(=O)N[C@@H](C(=O)N[C@@H]2C(=O)N3C(C(=O)O)=C(CSc4nnnn4C)CS[C@H]23)c2ccc(O)cc2)cn1 [CEFPIRAMIDE]"
reading = "> 30 µM"

[[record]]
molecule = "c1ccc([C@H]2CN3CCSC3=N2)cc1"
reading = "> 30 µM"

[[record]]
molecule = "COc1ccccc1N1CCN(CC(O)COc2cccc3ccccc23)CC1 (configuration not stated)"
reading = "1.2 µM"

[[record]]
molecule = "Cn1nnc2c(C(N)=O)ncn2c1=O [TEMOZOLOMIDE]"
reading = "> 30 µM"

[[record]]
molecule = "Cc1ccc(S(=O)(=O)NC(=O)NN2CC3CCCC3C2)cc1 (configuration not stated) [GLICLAZIDE]"
reading = "> 10 µM"

[[record]]
molecule = "Clc1ccc2nsnc2c1NC1=NCCN1"
reading = "> 10 µM"

[[record]]
molecule = "C1CCC(C(CC2CCCCN2)C2CCCCC2)CC1 (configuration not stated)"
reading = "> 3 µM"

[[record]]
molecule = "O=[N+]([O-])O[C@@H]1CO[C@H]2[C@@H]1OC[C@@H]2O [ISOSORBIDE MONONITRATE]"
reading = "> 10 µM"

[[record]]
molecule = "COc1ccc(-c2ccc3cc(C(=O)O)ccc3c2)cc1C12CC3CC(CC(C3)C1)C2"
reading = "> 30 µM"

[[record]]
molecule = "CN1C(=O)CCS(=O)(=O)C1c1ccc(Cl)cc1 (configuration not stated)"
reading = "> 10 µM"

[[record]]
molecule = "CO[C@@H]1[C@@H](O[C@@H]2O[C@H](C)[C@@H](O[C@H]3C[C@@](C)(O)[C@@H](OC(=O)CC(C)C)[C@H](C)O3)[C@H](N(C)C)[C@H]2O)[C@@H](CC=O)C[C@@H](C)[C@@H](O)/C=C/C=C/C[C@@H](C)OC(=O)C[C@H]1OC(C)=O"
reading = "> 10 µM"

[[record]]
molecule = "C[C@]12CC[C@H]3[C@@H](CCC4=CC(=O)CC[C@@]43C)[C@@H]1CC[C@@H]2O"
reading = "> 10 µM"

[[record]]
molecule = "CC(C)OC(=O)CCC/C=C\\C[C@@H]1[C@@H](CC[C@@H](O)CCc2ccccc2)[C@H](O)C[C@@H]1O"
reading = "> 30 µM"

[[record]]
molecule = "c1cnc(N2CCN(Cc3ccc4c(c3)OCO4)CC2)nc1"
reading = "20 µM"

[[record]]
molecule = "CC1(C)NC(=O)N(c2ccc([N+](=O)[O-])c(C(F)(F)F)c2)C1=O [NILUTAMIDE]"
reading = "> 30 µM"

[[record]]
molecule = "COc1ccc2c3c1O[C@H]1[C@@H](O)CC[C@H]4[C@@H](C2)N(C)CC[C@@]341 [DIHYDROCODEINE]"
reading = "> 30 µM"

[[record]]
molecule = "C[C@H](N)[C@H](O)c1cccc(O)c1"
reading = "> 10 µM"

[[record]]
molecule = "Cn1c(=O)c2c(ncn2CC2OCCO2)n(C)c1=O"
reading = "> 30 µM"

[[record]]
molecule = "CC(=O)NCCCS(=O)(=O)O [ACAMPROSATE]"
reading = "> 30 µM"

[[record]]
molecule = "CC(C)C[C@H]1C(=O)N2CCC[C@H]2[C@]2(O)O[C@](NC(=O)[C@@H]3C=C4c5cccc6[nH]c(Br)c(c56)C[C@H]4N(C)C3)(C(C)C)C(=O)N12"
reading = "0.17 µM"

[[record]]
molecule = "NC(=O)CN1CC(O)CC1=O (configuration not stated)"
reading = "> 30 µM"

[[record]]
molecule = "C=CCC1(C(C)CC)C(=O)NC(=O)NC1=O (configuration not stated)"
reading = "> 10 µM"

[[record]]
molecule = "COc1cccc(C2(O)CCCCC2CN(C)C)c1 (configuration not stated)"
reading = "> 10 µM"

[[record]]
molecule = "O=C(NCCNCC(O)COc1ccc(O)cc1)N1CCOCC1 (configuration not stated)"
reading = "> 30 µM"

[[record]]
molecule = "CN(C)CCC=C1c2ccccc2C(C)(C)c2ccccc21"
reading = "> 30 µM"

[[record]]
molecule = "Nc1ccn([C@H]2CC[C@@H](CO)O2)c(=O)n1"
reading = "> 10 µM"

[[record]]
molecule = "COCCCN1CCC(NC(=O)c2cc(Cl)c(N)c3c2OCC3)CC1 [PRUCALOPRIDE]"
reading = "> 30 µM"

[[record]]
molecule = "CCC1(CC)C(=O)NCC(C)C1=O (configuration not stated)"
reading = "> 30 µM"

[[record]]
molecule = "Cc1c(OCC(F)(F)F)ccnc1C[S+]([O-])c1nc2ccccc2[nH]1 (configuration not stated)"
reading = "> 10 µM"

[[record]]
molecule = "O=C(O)[C@H](CC(=O)N1C[C@H]2CCCC[C@H]2C1)Cc1ccccc1 [MITIGLINIDE]"
reading = "> 10 µM"

[[record]]
molecule = "CC(C)Cn1cnc2c(N)nc3ccccc3c21"
reading = "> 10 µM"

[[record]]
molecule = "CN(C)CCC=C1c2ccccc2C=Cc2ccccc21"
reading = "> 10 µM"

[[record]]
molecule = "CC1(C)O[C@@H]2C[C@H]3[C@@H]4CCC5=CC(=O)C=C[C@]5(C)[C@H]4[C@@H](O)C[C@]3(C)[C@]2(C(=O)CO)O1 [DESONIDE]"
reading = "> 10 µM"

[[record]]
molecule = "O=C(O)CCCCCCCC(=O)O"
reading = "> 10 µM"

[[record]]
molecule = "C=CCc1ccccc1OCC(O)CNC(C)C (configuration not stated)"
reading = "4.8 µM"

[[record]]
molecule = "Cc1cccc(C(C)c2cnc[nH]2)c1C (configuration not stated)"
reading = "> 30 µM"

[[record]]
molecule = "CCOc1ccccc1OCC1CNCCO1 (configuration not stated)"
reading = "> 10 µM"

